# target.or.system: T1, cyno SIRPγ ECD recombinant protein (cyno)
# T1 construct: extracellular domain
# experiment: ELISA, cyno SIRPγ ECD
measured.property: pEC50
Interpret pEC50 as the negative base-10 log of the concentration measured in mol/L.

The measured pEC50 associated with 073c (antibody, V domains shown, also called chimeric antibody 073c) VH: QIQLVQSGPELKKPGETVKISCKASGYTFTTYGMSWVKQAPGKGLKWMVWINTYSGVPTYADDFKGRFAFSLETSASTSYLQINNLKNEDTATYFCARDPHYYGSSPAWFVYWGQGTLVTVSA VL: DIVMTQSQKFMSTTIGDRVSITCEASQIVGIAVAWYQQKPGQSPKLLIYSASNRYTGVPDRFTGSGSGTDFTLTISNMQSEDLANYFCQQYSAYPFTFGSGTKLEVK reads 7.34

// sample hu1H9G4 (antibody, V domains shown) VH: QVQLVQSGAEVKKPGASVKVSCKASGYTFTSYWITWVKQAPGQGLEWIGDIYPGSGSTNHIEKFKSKATLTVDTSISTAYMELSRLRSDDTAVYYCATGYGSSYGYFDYWGQGTLVTVSS VL: DIQMTQSPSSLSASVGDRVTITCRASENIYSYLAWYQQKPGKAPKLLIYTAKTLAEGVPSRFSGSGSGTDFTLTISSLQPEDFATYYCQHQYGPPFTFGQGTKLELK , its pEC50 was 9.32

The recorded pEC50 for 042c (antibody, V domains shown, also called chimeric antibody 042c) VH: QIQLVQSGPELKKPGETVKISCRASGYTFTTYGMSWVKQAPGKGLRWMGWINTYSGVSTCADDFKGRFAFSLETSATTAYLQIHNLTNEDTATYFCARDPHSYGNSPAWFPYWGQGTLVTVSA VL: DIVMTQSQKFMSTTIRDRVSITCKASQNVGISVAWYQQKSGQSPKLLIYSASNRYTGVPDRFTGSGSGTDFTLTISNMQSEDLADYFCQQYSSYPLTFGSGTKLAIK is 7.69

The recorded pEC50 for 025c (antibody, V domains shown, also called chimeric antibody 025c; parental antibody of 025c) VH: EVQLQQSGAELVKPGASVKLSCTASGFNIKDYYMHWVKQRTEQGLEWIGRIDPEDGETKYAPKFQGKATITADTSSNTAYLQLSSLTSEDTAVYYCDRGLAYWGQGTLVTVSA VL: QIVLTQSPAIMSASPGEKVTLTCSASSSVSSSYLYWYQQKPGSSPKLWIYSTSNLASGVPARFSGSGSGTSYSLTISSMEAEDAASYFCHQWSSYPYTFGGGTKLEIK is 9.44
